The origin of these recorded values is PubChem BioAssay (NCI).

# System: HT29 colon
# test.summary: NCI-60 one-dose screen, 48 h (100 = growth as untreated, 0 = no growth, -100 = all killed)
# condition.summary: 10 µM unless noted
# Description: Growth inhibition of the HT29 human tumor cell line is measured as a screen for anti-cancer activity. Cells are grown in 96 well plates and exposed to the test compound for 48 hours. Compounds are tested at a single concentration, which is 10^-5 M for most compounds. The reported endpoint is percent growth (GI% or GIPRCNT), where numbers from 0 - 100% represent growth inhibition, and numbers from -100% - 0 represent cell death. For example, a value of 40 represents 60% growth inhibition. […]
About 83,000 compounds went through this panel and 20% of them were active in at least one assay; those are over-represented in the sample as a whole.
In this section, each of the compounds is paired with its reported growth.
# unit: % | format: bare number

Which growth is listed for "O=C1C(=C(O)c2ccccc2)C(=O)c2ccccc21" ?
109

Name the reported growth value associated with the compound CCCCCCCCN(CCCCCCCC)CC(O)c1cc(Cl)ccc1OC (stereo not given)
38.7

Reported growth, compound "N#Cc1c(N)nnn1Cc1cc(=O)oc2ccc(O)cc12" : ____
102

What does the data say about its growth? Entry: "O=C(c1cccc(Br)c1)N1CCN(c2ccnc3cc(Cl)ccc23)CC1"
81.7

Could you share which growth value was measured for "COc1cc(F)c(/C=C/c2cc(/C=C/c3cc(OC)c(OC)cc3F)n(-c3cc(F)cc(F)c3)n2)cc1OC" ?
22.9

What measured growth goes with "Cc1ccc(Nc2nc(-c3cc(O)c(C)c(C)c3O)cs2)cc1" ?
112

# growth lookup, item COc1cccc(NC(=O)c2sc3nc(C)c(C(O)c4ccccc4)cc3c2N)c1 (stereo not given)
13.3

Field request: growth | item: "N#C/C(=C\c1ccc(Br)cc1)n1nnc2c(F)cccc21"
-0.198

Tell me the measured growth of "CCNC(=S)n1nc(SC)c(C(=O)OCC)c1N" , please.
102

# query: growth of entry "N#Cc1ccccc1OCC(=O)Nc1nc2c(s1)COc1ccccc1-2"
104

====

# Tested on: SNB-75 CNS
# test.summary: NCI-60 one-dose screen, 48 h (100 = growth as untreated, 0 = no growth, -100 = all killed)
# condition.summary: 10 µM unless noted
About 83,000 compounds went through this panel and 20% of them were active in at least one assay; those are over-represented in the sample as a whole.
A collection of compounds and their measured growth
Please reply with the bare figure in % and do not write the unit itself.

Please review the following examples before continuing.
>>> measured_value("COc1cc(CNC(=O)CCCC/C=C/C(C)C)ccc1OCc1cn(-c2ccc([N+](=O)[O-])cc2)nn1")
83.9
>>> measured_value("CCOC(=O)c1nnn(Cc2cc(=O)oc3c2ccc2ccccc23)c1C")
91.6

Then there is this compound:
For "O=S(=O)(Nc1cc(Sc2cccc3cccnc23)c(O)c2ccccc12)c1ccc(F)cc1" , what is its reported growth?
63.8

====

# System: NCI-H23 lung
# test.summary: NCI-60 one-dose screen, 48 h (100 = growth as untreated, 0 = no growth, -100 = all killed)
# condition.summary: 10 µM
About 83,000 compounds went through this panel and 20% of them were active in at least one assay; those are over-represented in the sample as a whole.
property.name: growth (%)
Express it in %; write the number only.

Observe how each entry below is paired with its result.
>>> measured_value("CCN(Cc1ccccc1)c1ccc(/C=C2\\COc3ccccc3C2=O)cc1")
97.2
>>> measured_value("CC(=O)/C=C/c1ccc(N(CCO)Cc2ccc(C(C)(C)C)cc2)cc1")
75.5
>>> measured_value("CC(=O)/C=C/c1ccc(N(C)Cc2ccc(C(C)(C)C)cc2)cc1")
75.5
>>> measured_value("O=C(/C=C/c1cccc(Oc2ccc(Cl)cc2)c1)c1ccccc1")
90.8

Now examine the next entry.
Which measured growth value corresponds to "CC(=O)/C=C/c1ccc(OCc2ccc(Cl)cc2)cc1" ?
90.9
